Target: Vitamin D3 receptor (Homo sapiens)
Sequence (P11473 whole entry): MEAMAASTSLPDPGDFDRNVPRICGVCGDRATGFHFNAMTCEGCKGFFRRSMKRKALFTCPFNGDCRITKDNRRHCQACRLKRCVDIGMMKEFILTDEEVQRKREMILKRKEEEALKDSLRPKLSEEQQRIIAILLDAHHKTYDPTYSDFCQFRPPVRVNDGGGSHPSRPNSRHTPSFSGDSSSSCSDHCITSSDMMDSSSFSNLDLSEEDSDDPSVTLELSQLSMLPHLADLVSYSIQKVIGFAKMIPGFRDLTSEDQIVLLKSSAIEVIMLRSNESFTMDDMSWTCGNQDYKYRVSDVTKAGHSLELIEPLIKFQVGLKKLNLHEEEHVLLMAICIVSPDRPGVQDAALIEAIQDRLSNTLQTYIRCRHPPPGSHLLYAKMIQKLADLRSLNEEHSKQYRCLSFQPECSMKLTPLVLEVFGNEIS
Assay: Activation of VDR in human Jurkat cells expressing lentiviral VDRE-luciferase vector assessed as VDRE-mediated transcriptional activity measured after 24 hrs by luciferase transcriptional reporter assay
Format: cell-based
pEC50: −log10 of the molar value.

{"record-smiles": "C=C1/C(=C\\C=C2/CCC[C@@]3(C)[C@H]2CC[C@@H]3[C@@](C)(O)C[C@@H](O)CC(C)C)C[C@@H](O)C[C@@H]1O", "target": "Vitamin D3 receptor (Homo sapiens)", "pEC50": 6.69}
{"record-smiles": "C=C1/C(=C\\C=C2/CCC[C@]3(C)[C@@H]([C@H](C)OCCC(C)(C)O)CC[C@@H]23)C[C@@H](O)C[C@@H]1O", "target": "Vitamin D3 receptor (Homo sapiens)", "pEC50": 9.07}
{"record-smiles": "C=C1/C(=C\\C=C2/CCC[C@@]3(C)[C@H]2CC[C@@H]3[C@@](C)(O)C[C@H](O)CC(C)C)C[C@@H](O)C[C@@H]1O", "target": "Vitamin D3 receptor (Homo sapiens)", "pEC50": 7.51}
{"record-smiles": "C=C1CC[C@H](O)C/C1=C/C=C1\\CCC[C@@]2(C)[C@H]1CC[C@@H]2[C@@](C)(O)C[C@H](O)CC(C)C", "target": "Vitamin D3 receptor (Homo sapiens)", "pEC50": 6.19}

====

Target: Vitamin D3 receptor (Homo sapiens, UniProt P11473)
Experiment: Activation of VDR in human HaCaT cells expressing lentiviral VDRE-luciferase vector assessed as VDRE-mediated transcriptional activity measured after 24 hrs by luciferase transcriptional reporter assay
Format: cell-based
pEC50: −log10 of the molar value.

{"record-smiles": "C=C1/C(=C\\C=C2/CCC[C@@]3(C)[C@H]2CC[C@@H]3[C@@](C)(O)C[C@H](O)CC(C)C)C[C@@H](O)C[C@@H]1O", "pEC50": 6.93}
{"record-smiles": "C=C1/C(=C\\C=C2/CCC[C@@]3(C)[C@H]2CC[C@@H]3[C@@](C)(O)C[C@@H](O)CC(C)C)C[C@@H](O)C[C@@H]1O", "pEC50": 6.76}
{"record-smiles": "C=C1CC[C@H](O)C/C1=C/C=C1\\CCC[C@@]2(C)[C@H]1CC[C@@H]2[C@@](C)(O)C[C@H](O)CC(C)C", "pEC50": 6.32}
{"record-smiles": "C=C1/C(=C\\C=C2/CCC[C@]3(C)[C@@H]([C@H](C)OCCC(C)(C)O)CC[C@@H]23)C[C@@H](O)C[C@@H]1O", "pEC50": 6.80}

====

Biological target: Vitamin D3 receptor (Homo sapiens, UniProt P11473)
Test: Activation of VDR in human Caco2 cells expressing lentiviral VDRE-luciferase vector assessed as VDRE-mediated transcriptional activity measured after 24 hrs by luciferase transcriptional reporter assay
Assay type: cell-based, Caco-2
pEC50: −log10 of the molar value.

{"record-smiles": "C=C1/C(=C\\C=C2/CCC[C@@]3(C)[C@H]2CC[C@@H]3[C@@](C)(O)C[C@H](O)CC(C)C)C[C@@H](O)C[C@@H]1O", "target": "Vitamin D3 receptor (Homo sapiens, UniProt P11473)", "pEC50": 6.77}
{"record-smiles": "C=C1/C(=C\\C=C2/CCC[C@@]3(C)[C@H]2CC[C@@H]3[C@@](C)(O)C[C@@H](O)CC(C)C)C[C@@H](O)C[C@@H]1O", "target": "Vitamin D3 receptor (Homo sapiens, UniProt P11473)", "pEC50": 6.62}
{"record-smiles": "C=C1CC[C@H](O)C/C1=C/C=C1\\CCC[C@@]2(C)[C@H]1CC[C@@H]2[C@@](C)(O)C[C@H](O)CC(C)C", "target": "Vitamin D3 receptor (Homo sapiens, UniProt P11473)", "pEC50": 6.25}
{"record-smiles": "C=C1/C(=C\\C=C2/CCC[C@]3(C)[C@@H]([C@H](C)OCCC(C)(C)O)CC[C@@H]23)C[C@@H](O)C[C@@H]1O", "target": "Vitamin D3 receptor (Homo sapiens, UniProt P11473)", "pEC50": 6.84}

Value source: ChEMBL document CHEMBL3822391
